From: patent US8497289B2

Molecular target: GlyT1 (Homo sapiens)
Construct: Human placental choriocarcinoma cells endogenously expressing GlyT1; host or cells: JAR cells (human placental choriocarcinoma)
Sequence (P48067 whole entry): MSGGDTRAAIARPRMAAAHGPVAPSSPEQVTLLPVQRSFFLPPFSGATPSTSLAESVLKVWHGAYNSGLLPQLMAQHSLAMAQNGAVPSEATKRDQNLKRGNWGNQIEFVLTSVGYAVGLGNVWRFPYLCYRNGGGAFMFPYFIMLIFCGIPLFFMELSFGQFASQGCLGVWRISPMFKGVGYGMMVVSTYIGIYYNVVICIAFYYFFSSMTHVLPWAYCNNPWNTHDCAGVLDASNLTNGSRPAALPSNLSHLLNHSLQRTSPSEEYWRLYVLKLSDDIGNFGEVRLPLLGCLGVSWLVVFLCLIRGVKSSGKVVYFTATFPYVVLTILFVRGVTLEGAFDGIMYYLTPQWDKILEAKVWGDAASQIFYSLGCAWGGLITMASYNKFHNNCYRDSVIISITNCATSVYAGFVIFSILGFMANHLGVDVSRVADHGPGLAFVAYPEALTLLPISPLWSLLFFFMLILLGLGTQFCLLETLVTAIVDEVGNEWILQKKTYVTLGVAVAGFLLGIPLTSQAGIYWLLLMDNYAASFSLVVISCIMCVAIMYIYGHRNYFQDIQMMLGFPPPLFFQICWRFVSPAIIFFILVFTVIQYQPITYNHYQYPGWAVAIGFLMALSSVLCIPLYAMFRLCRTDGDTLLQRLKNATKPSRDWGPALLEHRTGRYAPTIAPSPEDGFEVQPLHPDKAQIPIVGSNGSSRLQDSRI
Assay: [14C]-glycine uptake in JAR cells (scintillation proximity, Cytostar T plates)
Assay type: cell-based
Settings: read-out: Potency
Protocol: Human placental choriocarcinoma cells endogenously expressing GlyT1 can be cultured using standard conditions. Cells can then be grown at 37° C. in a humidified atmosphere 40-48 hours before the assay. […] After incubation the microplates can be sealed and counted. Non-specific uptake of [^14C]-glycine can be determined in the presence of unlabeled glycine. […]
pIC50: −log10 of the molar value.
Measured quantity: pIC50

Molecule	Lt gt eq	Number
CCCS(=O)(=O)N1CC2C(C1)C2(CNC(=O)c1ccc(Cl)cc1)CC1CC1 (centres unmarked) [Compound 9c]	=	5.73
Cn1cnc(S(=O)(=O)N2CC3C(C2)C3(CNC(=O)c2ccccc2Cl)c2ccccn2)c1 (centres unmarked) [Compound 13a]	=	6.34
CCCS(=O)(=O)N1CC2C(C1)C2(CNC(=O)c1cccc(C(F)(F)F)c1)CC1CC1 (centres unmarked) [Compound 9d]	=	5.35
O=C(NCC1(CC2CC2)C2CN(S(=O)(=O)CC3CC3)CC21)c1ccc(C(F)(F)F)cc1 (centres unmarked) [Compound 9h]	=	6.20
Cn1cnc(S(=O)(=O)N2CC3C(C2)C3(CNC(=O)c2ccc(Cl)cc2)CC2CC2)c1 (centres unmarked) [Compound 6c]	=	7.49
Cn1cnc(S(=O)(=O)N2CC3C(C2)C3(CNC(=O)c2cc(Cl)cc(Cl)c2)CC2CC2)c1 (centres unmarked) [Compound 6i]	=	7.00
Cn1cnc(S(=O)(=O)N2CC3C(C2)C3(CNC(=O)c2ccccc2C(F)(F)F)CC2CC2)c1 (centres unmarked) [Compound 6f]	=	8.30
Cn1cnc(S(=O)(=O)N2CC3C(C2)C3(CNC(=O)c2ccc(Cl)c(Cl)c2)CC2CC2)c1 (centres unmarked) [Compound 6d]	=	7.09
O=C(NCC1(c2ccccn2)C2CN(S(=O)(=O)c3ccccc3)CC21)c1ccc(Cl)cc1Cl (centres unmarked) [Compound 12f]	<	4.70
Cn1cnc(S(=O)(=O)N2CC3C(C2)C3(CNC(=O)c2c(F)cccc2F)CC2CC2)c1 (centres unmarked) [Compound 6e]	=	8.40
Cn1cnc(S(=O)(=O)N2CC3C(C2)C3(CNC(=O)c2cccc(Cl)c2)CC2CC2)c1 (centres unmarked) [Compound 6j]	=	6.92
Cn1cnc(S(=O)(=O)N2CC3C(C2)C3(CNC(=O)c2cccc(C(F)(F)F)c2)CC2CC2)c1 (centres unmarked) [Compound 6g]	=	7.19
CCCS(=O)(=O)N1CC2C(C1)C2(CNC(=O)c1ccc(F)cc1Cl)CC1CC1 (centres unmarked) [Compound 9f]	=	6.29
Cn1cnc(S(=O)(=O)N2CC3C(C2)C3(CNC(=O)c2ccccc2Cl)CC2CC2)c1 (centres unmarked) [Compound 6b]	=	7.73
O=C(NCC1(CC2CC2)C2CN(S(=O)(=O)CC3CC3)CC21)c1ccccc1C(F)(F)F (centres unmarked) [Compound 9g]	=	6.16
CCCS(=O)(=O)N1CC2C(C1)C2(CNC(=O)c1ccc(C(F)(F)F)cc1)CC1CC1 (centres unmarked) [Compound 9e]	=	5.96
CCCS(=O)(=O)N1CC2C(C1)C2(CNC(=O)c1ccc(Cl)cc1Cl)c1ccccn1 (centres unmarked) [Compound 12c]	<	4.70
